Assay: Clearance in rat
Type: ADME
Conditions: in vivo
OBSERVED PROPERTY: clearance

What does the data say about its clearance? Entry: "C[C@@H](O)[C@H]1C(=O)N2C(C(=O)O)=C(S[C@@H]3CN[C@H](C(=O)N(C)C)C3)[C@H](C)[C@H]12"
51.2 mL/min/kg

###

System: Priestia megaterium
Test: Antimicrobial activity against Bacillus megaterium
Assay type: functional
Below: a set of entries, each annotated with reported MIC.
Report the figure in µg/mL without appending any unit label.

// below: answered compounds
>>> df
                                   compound  assay_result
0  O=C(O)c1cn(C2CC2)c2cc(N3CCN(C(=O)CCSc4nnnn4-c4ccc(Br)cc4)CC3)c(F)cc2c1=O          15.6
1  CCn1cc(C(=O)O)c(=O)c2cnc(N3CCNCC3)nc21 [PIPEMIDIC ACID]          31.2

What does the data say about its MIC? Entry: "COc1cc(-n2nnnc2SCCC(=O)N2CCN(c3cc4c(cc3F)c(=O)c(C(=O)O)cn4C3CC3)CC2)cc(OC)c1OC"
15.6

The reported numbers originate from ChEMBL document CHEMBL4342421.
